Entry source: patent US20240351988A1

Molecular target: Human Aryl Hydrocarbon Receptor (AhR) (Homo sapiens)
Construct: purchased INDIGO Bioscience #1B06001-32; host or cells: AhR Reporter Cell (kit's proprietary reporter cells)
Sequence (P35869 11-848): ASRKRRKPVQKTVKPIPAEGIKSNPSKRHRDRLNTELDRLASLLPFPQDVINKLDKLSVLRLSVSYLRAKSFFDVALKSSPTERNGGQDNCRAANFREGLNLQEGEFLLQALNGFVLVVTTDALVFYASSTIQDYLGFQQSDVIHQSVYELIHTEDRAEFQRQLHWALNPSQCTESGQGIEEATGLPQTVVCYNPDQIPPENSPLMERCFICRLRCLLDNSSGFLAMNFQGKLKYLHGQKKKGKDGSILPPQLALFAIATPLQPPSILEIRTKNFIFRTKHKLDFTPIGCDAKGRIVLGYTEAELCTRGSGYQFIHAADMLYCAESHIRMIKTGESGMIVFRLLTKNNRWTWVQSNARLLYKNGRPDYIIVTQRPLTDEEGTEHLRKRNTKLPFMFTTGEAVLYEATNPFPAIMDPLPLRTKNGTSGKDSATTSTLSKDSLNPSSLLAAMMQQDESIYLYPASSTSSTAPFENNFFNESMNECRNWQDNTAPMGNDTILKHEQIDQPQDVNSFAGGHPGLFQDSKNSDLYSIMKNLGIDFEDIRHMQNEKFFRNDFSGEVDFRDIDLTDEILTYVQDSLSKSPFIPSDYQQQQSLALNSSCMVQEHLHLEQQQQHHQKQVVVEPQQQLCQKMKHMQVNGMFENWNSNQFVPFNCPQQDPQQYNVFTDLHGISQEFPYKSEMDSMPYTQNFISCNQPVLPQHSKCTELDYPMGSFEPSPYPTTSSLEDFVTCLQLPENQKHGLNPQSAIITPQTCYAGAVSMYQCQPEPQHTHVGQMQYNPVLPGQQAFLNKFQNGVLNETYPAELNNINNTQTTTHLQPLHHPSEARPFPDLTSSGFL
Experiment: AHR antagonist reporter assay in human cell line (INDIGO AhR Reporter Assay System, kynurenic acid activated)
Type: cell-based
Conditions: 200 μM kynurenic acid, 24 hours, luciferase; read-out: AhR Reporter Assay KA Antagonist Mode: IC50
Method: The AhR reporter assay was performed following the protocol of the Human Aryl Hydrocarbon Receptor (AhR) Reporter Assay System (INDIGO Bioscience, #1B06001-32). AhR Reporter Cell was thawed and pre-incubated in Cell Recovery Medium (CRM) for 6 hours. […] The firefly luciferase activity was quantified using a plate reader. […]
pIC50: −log10 of the molar value.
measurement.name: pIC50

molecule	experimental.result
C[C@@H](CO)NC(=O)c1cc(-c2ccc(-c3ccc4ncccc4c3)nc2)nn(-c2cnn(C)c2)c1=O [Compound 196]	< 6.40
C[C@H](NC(=O)c1cc(-n2cc(-c3ccc(Cl)cc3)nn2)nn(-c2cnn(C)c2)c1=O)C(=O)N(C)C [Compound 189]	< 6.40
C[C@@H](CO)NC(=O)c1cc(-c2ccc(C(=O)N(C)C)cc2)nn(-c2cccc(F)c2)c1=O [Compound 179]	< 6.40
CNCCNC(=O)c1cc(-c2ccc(Cl)cc2)nn(-c2cnn(C)c2)c1=O [Compound 46]	< 6.40
NC(=O)CNC(=O)c1cc(-c2ccc(Cl)cc2)nn(-c2cccc(F)c2)c1=O [Compound 8]	< 6.40
Cn1cc(-n2nc(-c3ccc(Cl)cc3)cc(C(=O)NCC(=O)O)c2=O)cn1 [Compound 33]	< 6.40
COC[C@H](C)NC(=O)c1cc(-c2ccc(OC(F)(F)F)cc2)nn(-c2cnn(C)c2)c1=O [Compound 69]	> 7.00
CNC(=O)CNC(=O)c1cc(-c2ccc(Cl)cc2)nn(-c2cnn(C)c2)c1=O [Compound 35]	< 6.40
CNC(=O)[C@H](C)NC(=O)c1cc(-c2ccc(C(=O)N(C)C)cc2)nn(-c2cccc(F)c2)c1=O [Compound 180]	> 7.00
COC[C@H](C)NC(=O)c1cc(-c2ccc3c(C)nn(C)c3c2)nn(-c2cnn(C)c2)c1=O [Compound 123]	> 7.00
COC[C@H](C)NC(=O)c1cc(N2CCC3(CCCC3)CC2)nn(-c2cnn(C)c2)c1=O [Compound 116]	< 6.40
COC[C@H](C)NC(=O)c1cc(-c2ccc3c(c2)OCO3)nn(-c2cnn(C)c2)c1=O [Compound 140]	< 6.40
COC[C@H](C)NC(=O)c1cc(C2CCC(C)CC2)nn(-c2cnn(C)c2)c1=O (stereo partly shown) [Compound 152]	< 6.40
COC[C@H](C)NC(=O)c1cc(-n2ccc(C(F)(F)F)n2)nn(-c2cnn(C)c2)c1=O [Compound 138]	< 6.40
C[C@@H](CO)NC(=O)c1cc(-c2cnc(-c3ccccc3F)nc2)nn(-c2cnn(C)c2)c1=O [Compound 194]	> 7.00
CCc1ccc(-c2cc(C(=O)N[C@@H](C)COC)c(=O)n(-c3cnn(C)c3)n2)cc1 [Compound 204]	6.40 to 7.00

----------
Listed here: items and their measured pIC50.
target: Human Aryl Hydrocarbon Receptor (AhR) (Homo sapiens); test: AHR antagonist reporter assay in human cell line (INDIGO AhR Reporter Assay System, kynurenic acid activated); conditions: 200 μM kynurenic acid, 24 hours, luciferase; read-out: AhR Reporter Assay KA Antagonist Mode: IC50
pIC50: −log10 of the molar value.

compound	pIC50
C[C@H](NC(=O)c1cc(-c2ccc(-c3ccc(Cl)cc3)nc2)nn(-c2cnn(C)c2)c1=O)C(=O)N(C)C [Compound 177]	> 7.00
C[C@H](NC(=O)c1cc(-c2cnc(-c3ccc(Cl)cc3)nc2)nn(-c2cnn(C)c2)c1=O)C(=O)N(C)C [Compound 182]	> 7.00
CNC(=O)[C@H](C)NC(=O)c1cc(-n2ncc(-c3ccc(Cl)cc3)n2)nn(-c2cnn(C)c2)c1=O [Compound 190]	< 6.40
C[C@H](NC(=O)c1cc(-c2ccc(Cl)cc2)nn(-c2cccc(F)c2)c1=O)C(=O)N(C)C [Compound 99]	> 7.00
Cn1cc(-n2nc(-c3ccc(Cl)cc3)cc(C(=O)NCC(N)=O)c2=O)cn1 [Compound 34]	< 6.40
COC[C@H](C)NC(=O)c1cc(-c2cnc(C(C)=O)s2)nn(-c2cnn(C)c2)c1=O [Compound 87]	< 6.40
C[C@@H](CO)NC(=O)c1cc(N2CCN(c3ccc(F)cc3)CC2)nn(-c2cnn(C)c2)c1=O [Compound 208]	> 7.00
